Data provenance is the supplement of paper PMC10126150.

System: ATP;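 note: ATP exposure 15 min at 22 °C before imaging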
Assay: switch fluorescence ratio, 500 uM ATP over buffer (Cy3 cluster intensity, sum of 5 cycles each) (fold (ratio)); higher = stronger signal-on switching upon ATP binding; sequences stand for … in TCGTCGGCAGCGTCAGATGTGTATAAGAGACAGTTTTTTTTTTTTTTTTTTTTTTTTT…TC
Conditions: aptamer strand: ATP DNA aptamer (quencher-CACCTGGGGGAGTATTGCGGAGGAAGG + anchor), 100 nM annealed; ATP concentration: 500 uM
We use 1 as the dividing line for switch fluorescence ratio: on or above the line is class 1, below is class 0.

Known results for sequences:
{"RECORD_SEQUENCE": "TTTAATATGC", "CLASS_ASSIGNMENT": "class 1"}
{"RECORD_SEQUENCE": "CATTGTGCCT", "CLASS_ASSIGNMENT": "class 1"}
{"RECORD_SEQUENCE": "AGGACGGCAG", "CLASS_ASSIGNMENT": "class 0"}

Okay, now this sequence:
Has `CAACCGGGAA` a recorded switch fluorescence ratio greater than or equal to 1?
class 1

* * *

Can you tell me switch fluorescence ratio for the items I'm about to list?
System: ATP;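 note: ATP exposure 15 min at 22 °C before imaging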
Experiment: switch fluorescence ratio, 500 uM ATP over buffer (Cy3 cluster intensity, sum of 5 cycles each) (fold (ratio)); higher = stronger signal-on switching upon ATP binding; sequences stand for … in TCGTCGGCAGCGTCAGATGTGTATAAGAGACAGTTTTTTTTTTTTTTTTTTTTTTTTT…TC
Settings: aptamer strand: ATP DNA aptamer (quencher-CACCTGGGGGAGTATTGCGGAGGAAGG + anchor), 100 nM annealed; ATP concentration: 500 uM

{"RECORD_SEQUENCE": "TTTAAAAAGT", "RECORDED_MEASUREMENT": 1}
{"RECORD_SEQUENCE": "TTGTGAAAGA", "RECORDED_MEASUREMENT": 1.01}
{"RECORD_SEQUENCE": "TTAAAGAGGG", "RECORDED_MEASUREMENT": 0.974}
{"RECORD_SEQUENCE": "GGGCGTTTGA", "RECORDED_MEASUREMENT": 1}
{"RECORD_SEQUENCE": "AAGTCCGTTT", "RECORDED_MEASUREMENT": 1.02}
{"RECORD_SEQUENCE": "TCTATTGGTG", "RECORDED_MEASUREMENT": 1.02}

Hi! Can you tell me switch fluorescence ratio for each of these sequences?
1. TGATGTATCA
2. GGTACCCTGG
3. AAAATGTGGT
4. TTGCCTGAAA
5. TGTCATTCGC
6. GGGTCAGTGG
7. TTTTGAGGCT
8. ATATTGGTTA

1. 1.01
2. 1.03
3. 1
4. 1
5. 1.05
6. 0.976
7. 1.01
8. 0.992

Hi! Can you tell me switch fluorescence ratio for each of these sequences?
1. GGAGAGGGGT
2. AAATATCTCA
3. CTGGCATGGA
4. TGGGGCTTCA
5. CGATAAGCGG
6. GTCTAACGCG
7. AATTGCTCGT

1. 0.99
2. 1.02
3. 1.01
4. 1.01
5. 1.02
6. 0.97
7. 1

Hi! Can you tell me switch fluorescence ratio for each of these sequences?
1. GTTGATTTGG
2. ATGGGGGTCG
3. TTGGGACTGT
4. TTTTGGAAAG

0.981
0.98
0.978
0.987

Hi! Can you tell me switch fluorescence ratio for each of these sequences?
1. TTATTTATTT
2. ACTTTTAAGG
3. TAATGCAATT

0.975
0.983
1.02
